This collection of values is drawn from paper PMC3711439.

biological target: PU.1 (human, UniProt P17947 1-270); assay: MST; MST: 20 mM Tris-HCl pH 7.6, 1.5 mM MgCl2, 0.5 mM EGTA, 10% glycerol, 300 mM KCl, 10 mM DTT, 25 C; 50 nM Cy3-dsDNA, PU.1 1:1 dilutions from 23 uM; details: protein: recombinant; tags: N-terminal His-tag; label: Cy3 on upper strand
pKd: −log10 of the molar value.

BINDER | pKd
PU.1 motif oligo 57 (dsDNA) DNA 1: ACGTGAGTTCCTTTAAACGT DNA 2: ACGTTTAAAGGAACTCACGT | 5.78
PU.1 motif oligo 72 (dsDNA) DNA 1: ACGTAATTTCCTCATCACGT DNA 2: ACGTGATGAGGAAATTACGT | 5.96
PU.1 motif oligo 43 (dsDNA) DNA 1: ACGTCACTTCCTCTGGACGT DNA 2: ACGTCCAGAGGAAGTGACGT | 6.09
